experimental.protocol: Metabolic stability in mouse liver microsomes assessed as compound remaining at 0.5 uM after 10 mins
Format: ADME
condition: read-out: Stability
molecules and their reported remaining at 10 min, 0.5 µM
Field format: number, assumed %, no unit text.

INSERT INTO results (smiles_entry, endpoint_value) VALUES
  ('CC1(C)CN(c2ccccc2NC(=O)Nc2ccc(OC(F)(F)F)cc2)c2c(O)cc(F)c(-c3cnc(Cl)cn3)c21', 67),
  ('CC1(C)CN(c2ccccc2NC(=O)Nc2ccc(OC(F)(F)F)cc2)c2c(O)ccc(-c3cccc(F)c3)c21', 56),
  ('CC1(C)CN(c2ccccc2NC(=O)Nc2ccc(OC(F)(F)F)cc2)c2c(O)ccc(-c3ccc(F)cc3F)c21', 79);

Incoming: Which remaining at 10 min, 0.5 µM reading was recorded for the molecule CC1(C)CN(c2ccccc2NC(=O)Nc2nc3ccc(Cl)nc3s2)c2c(O)ccc(-c3ccc(F)cc3)c21 ?
Outgoing: 65

* * *

// bioavailability lookup, one value per entry
experimental.protocol: Oral bioavailability in rat at 0.5 mg/kg by cassette dosing method
Format: ADME, organism-based
condition: in vivo
Give the quantity in %, number only.

INSERT INTO assay_data (compound, endpoint_unit, endpoint_value) VALUES
  ('CC(C)(C)CN1CCC2(CC1)CN(c1ccccc1NC(=O)Nc1ccc(OC(F)(F)F)cc1)c1c(O)cc(F)c(-c3ccc(F)cc3)c12', '%', 17),
  ('CC(C)(C)CN1CCC2(CC1)CN(c1ccccc1NC(=O)Nc1ccc(OC(F)(F)F)cc1)c1c(O)cc(F)c(-c3ccc(Cl)cc3)c12', '%', 15),
  ('CC(C)(C)CN1CCC2(CC1)CN(c1ccccc1NC(=O)Nc1nc3ccc(Cl)nc3s1)c1c(O)cc(F)c(-c3ccc(F)cc3)c12', '%', 30);

Let us examine a further case.
Incoming: Query (compound): CC(C)CN1CCCC1c1ccc(NC(=O)Nc2ccccc2N2CC(C)(C)c3c(-c4ccc(F)cc4)ccc(O)c32)cc1 (centres undefined) ; field requested: bioavailability
Outgoing: 4

* * *

Recorded log10 IC50 by entry
assayed.system: P2Y purinoceptor 1 (Homo sapiens)
Sequence (P47900 whole entry): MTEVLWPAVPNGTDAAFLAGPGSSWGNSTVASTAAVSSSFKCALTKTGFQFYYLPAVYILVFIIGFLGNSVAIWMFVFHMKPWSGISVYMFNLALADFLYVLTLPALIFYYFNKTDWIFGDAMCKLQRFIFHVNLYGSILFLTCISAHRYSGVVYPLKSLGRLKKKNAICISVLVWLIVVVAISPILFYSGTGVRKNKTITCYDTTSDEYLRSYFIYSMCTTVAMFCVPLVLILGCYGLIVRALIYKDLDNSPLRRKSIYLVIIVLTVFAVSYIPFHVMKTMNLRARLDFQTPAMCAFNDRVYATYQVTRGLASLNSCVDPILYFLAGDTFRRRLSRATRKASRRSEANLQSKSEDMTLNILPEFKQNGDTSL
experimental.protocol: Antagonist activity at P2Y1 receptor in washed human platelets assessed as 1 uM 2-methylthio-ADP-induced calcium flux by FLIPR assay
Quick note: numbers are log10 of IC50, with nM as the unit.

Example compounds with recorded log10 IC50:
INSERT INTO measurements (smiles_entry, endpoint_value) VALUES
  ('CC1(C)CN(c2ccccc2NC(=O)Nc2ccc(OC(F)(F)F)cc2)c2c(O)ccc(-c3ccc(F)cc3)c21', -0.48),
  ('CC1(C)CN(c2ccccc2NC(=O)Nc2nc3ccc(Cl)nc3s2)c2c(O)ccc(-c3ccc(F)cc3)c21', -0.89),
  ('CC1(C)CN(c2ccccc2NC(=O)Nc2ccc(OC(F)(F)F)cc2)c2c(O)ccc(-c3ccc(Cl)cc3)c21', -0.89),
  ('CC(C)(C)CN1CCC2(CC1)CN(c1ccccc1NC(=O)Nc1nc3ccc(Cl)nc3s1)c1c(O)cc(F)c(-c3ccc(F)cc3)c12', -0.92),
  ('CC1(C)CN(c2ccccc2NC(=O)Nc2ccc(OC(F)(F)F)cc2)c2c(O)cc(F)c(-c3ccc(Cl)s3)c21', 0.36);

Read the next record carefully.
Incoming: Which value of log10 IC50 has been reported for CC1(C)CN(c2ccccc2NC(=O)Nc2ccc(OC(F)(F)F)cc2)c2c(O)ccc(Cl)c21 in the records?
Outgoing: -0.41

* * *

experimental.protocol: Metabolic stability in rat liver microsomes assessed as compound remaining at 0.5 uM after 10 mins
Format: ADME
condition: read-out: Stability
remaining at 10 min, 0.5 µM values, listed per item
Your answer should be a plain number; it is taken to be in %.

In the examples that follow, each entry is paired with its recorded remaining at 10 min, 0.5 µM.
INSERT INTO assay_data (compound, endpoint_value) VALUES
  ('CC1(C)CN(c2ccccc2NC(=O)Nc2ccc(OC(F)(F)F)cc2)c2c(O)ccc(-c3ccc(F)cc3)c21', 89),
  ('CC1(C)CN(c2ccccc2NC(=O)Nc2ccc(OC(F)(F)F)cc2)c2c(O)ccc(-c3ccccc3F)c21', 54),
  ('CC1(C)CN(c2ccccc2NC(=O)Nc2ccc(OC(F)(F)F)cc2)c2c(O)ccc(-c3ccc(F)c(F)c3)c21', 81);

Would you kindly look at the next entry?
Incoming: Recorded remaining at 10 min, 0.5 µM for CCOC(=O)C1(C)CN(c2ccccc2NC(=O)Nc2nc3ccc(Cl)nc3s2)c2c(O)ccc(Cl)c21 (centres undefined) , please?
Outgoing: 14

* * *

experimental.protocol: Clearance in rat at 0.5 mg/kg, iv by discrete dosing method
Assay type: ADME, organism-based
Design: dose 0.5 mg/kg, route intravenous
condition: in vivo
measurement.name: clearance (mL/min/kg)
Output spec: scalar in mL/min/kg, unitless text.

Incoming: Bench note: what clearance did CC1(C)CN(c2ccccc2NC(=O)Nc2ccc(OC(F)(F)F)cc2)c2c(O)cc(F)c(-c3ccc(Cl)cc3)c21 show?
Outgoing: 1.3

* * *

experimental.protocol: Metabolic stability in mouse liver microsomes assessed as compound remaining at 0.5 uM after 10 mins
Assay type: ADME
condition: read-out: Stability
measurement.name: remaining at 10 min, 0.5 µM (%)
The figure you give is taken to be in %; do not add the unit.

Use the examples below as a reference point.
INSERT INTO assay_data (compound, endpoint_unit, endpoint_value) VALUES
  ('CCOC(=O)C1(C)CN(c2ccccc2NC(=O)Nc2nc3ccc(Cl)nc3s2)c2c(O)ccc(Cl)c21 (stereo not drawn)', '%', 54),
  ('CC1(C)CN(c2ccccc2NC(=O)Nc2ccc(OC(F)(F)F)cc2)c2c(O)ccc(-c3ccc(F)cc3)c21', '%', 83),
  ('CC1(C)CN(c2ccccc2NC(=O)Nc2ccc(OC(F)(F)F)cc2)c2c(O)c(F)cc(-c3ccc(F)cc3)c21', '%', 66),
  ('CC1(C)CN(c2ccccc2NC(=O)Nc2ccc(OC(F)(F)F)cc2)c2c(O)ccc(-c3ccc(Cl)cc3)c21', '%', 78),
  ('CC1(C)CN(c2ccccc2NC(=O)Nc2ccc(OC(F)(F)F)cc2)c2c(O)cc(F)c(-c3ccc(Cl)s3)c21', '%', 88),
  ('CC(C)(C)CN1CCC2(CC1)CN(c1ccccc1NC(=O)Nc1nc3ccc(Cl)nc3s1)c1c(O)ccc(Cl)c12', '%', 84);

Incoming: Reported remaining at 10 min, 0.5 µM, compound CC1(C)CN(c2ccccc2NC(=O)Nc2ccc(OC(F)(F)F)cc2)c2c(O)c(F)cc(-c3ccc(Cl)cc3)c21 : ____
Outgoing: 80

Incoming: Fill blank: measured remaining at 10 min, 0.5 µM of the compound CC1(C)CN(c2ccccc2NC(=O)Nc2ccc(OC(F)(F)F)cc2)c2c(O)ccc(-c3cc(F)cc(F)c3)c21 is ____.
Outgoing: 64

* * *

experimental.protocol: Oral bioavailability in rat at 15 mg/kg by discrete dosing method
Type: ADME, organism-based
condition: in vivo
measurement.name: bioavailability
Returns: string containing the number followed by the unit.

Incoming: // bioavailability lookup, key: CC1(C)CN(c2ccccc2NC(=O)Nc2ccc(OC(F)(F)F)cc2)c2c(O)cc(F)c(-c3ccc(Cl)cc3)c21
Outgoing: 10%

* * *

experimental.protocol: Metabolic stability in mouse liver microsomes assessed as compound remaining at 0.5 uM after 10 mins
Type: ADME
condition: read-out: Stability
remaining at 10 min, 0.5 µM less than 70% is True; remaining at 10 min, 0.5 µM greater than or equal to 70% is False.

# count of solved cases: 3
INSERT INTO assay_data (smiles_entry, qualitative_label) VALUES
  ('CC1(C)CN(c2ccccc2NC(=O)Nc2csc(Cl)n2)c2c(O)ccc(-c3ccc(F)cc3)c21', 'False'),
  ('CC1(C)CN(c2ccccc2NC(=O)Nc2ccc(OC(F)(F)F)cc2)c2c(O)ccc(-c3ccccc3F)c21', 'True'),
  ('CC(C)(C)CN1CCC2(CC1)CN(c1ccccc1NC(=O)Nc1ccc(OC(F)(F)F)cc1)c1c(O)cc(F)c(-c3ccc(F)cc3)c12', 'True');

Incoming: remaining at 10 min, 0.5 µM under 70%? Item: CC1(C)CN(c2ccccc2NC(=O)Nc2ccc(OC(F)(F)F)cc2)c2c(O)ccc(-c3ccccc3)c21
Outgoing: True

Incoming: Consider the compound CC1(C)CN(c2ccccc2NC(=O)Nc2ccc(OC(F)(F)F)cc2)c2c(O)cc(F)c(-c3ccc(F)cc3)c21 . Is its remaining at 10 min, 0.5 µM strictly less than 70%?
Outgoing: False

Incoming: Quick check: remaining at 10 min, 0.5 µM of CC1(C)CN(c2ccccc2NC(=O)Nc2ccc(OC(F)(F)F)cc2)c2c(O)ccc(-c3ccc(F)c(F)c3)c21 under 70%?
Outgoing: True

Incoming: # strict comparison: is reported remaining at 10 min, 0.5 µM < 70%? input = CC1(C)CN(c2ccccc2NC(=O)Nc2ccc(OC(F)(F)F)cc2)c2c(O)ccc(-c3ccc(C(F)(F)F)cc3)c21
Outgoing: False

Incoming: Check if remaining at 10 min, 0.5 µM falls below 70% for CC1(C)CN(c2ccccc2NC(=O)Nc2ccc(OC(F)(F)F)cc2)c2c(O)cc(F)c(-c3cc(F)nc(F)c3)c21 .
Outgoing: False
